details: in methanol, 303.15 K
PROPERTY_NAME: solubility (mole fraction)
Answers are plain numbers.

Any idea what solubility (mole fraction) was measured for O=C(O)c1cc(O)c(O)c(O)c1 ?
0.07

----------
settings: in water, 308.15 K
PROPERTY_NAME: solubility (mole fraction)
Answers are plain numbers.

# solubility (mole fraction) lookup, item O=C(O)c1cc(O)c(O)c(O)c1
0.00227

----------
details: in methanol, 308.15 K
PROPERTY_NAME: solubility (mole fraction)
Answers are plain numbers.

Quick check: solubility (mole fraction) of O=C(O)c1cc(O)c(O)c(O)c1 ?
0.0721

----------
conditions: in water, 298.15 K
PROPERTY_NAME: solubility (mole fraction)
Give bare numbers.

Any idea what its solubility (mole fraction) is? The molecule is O=C(O)c1cc(O)c(O)c(O)c1
0.00135

----------
details: in water, 303.15 K
PROPERTY_NAME: solubility (mole fraction)
One number for each entry.

Using the record for O=C(O)c1cc(O)c(O)c(O)c1 , report its solubility (mole fraction).
0.00171
